Target Of Assay: Recombinant human Gal3 (rhGal3) (TrueBinding, #QC200361) (human, UniProt P17931 2-250)
Test Summary: cell-based or functional assay
Label yes when % inhibition of IL-6 secretion >= 20%; otherwise no.

20H5.A3 (antibody, mouse IgG2a, V domains shown) VH: QIQLVQSGPELKKPGESVKISCKASGYAFTTYGMSWVQQAPGKGLKWMGWVNTYSGVPTCADDFKGRFAFSLETSASTAYLQINNLRNEDTATYFCARGPYAMDYWGQGTSVTVSS VL: DIQMTQTTSSLSASLGDRVTINCSASQDISNYLNWYQQKPDGTVKLLIYYTSSLLSGVPSRFSGSGSGTDYSLTISNLEPEDIATYFCQQYSKLPYTFGSGTHLEIKR ... yes
849.2D7 (antibody, V domains shown) VH: QVQLQQSGPQLVRPGASVKISCKASGYSFTNYWMHWVKQRPGQGLEWIGMIDPSDSETRLNQKFKDKATLTVDKSSSTAYMQLSSPTSEDSAVYYCATGRPDYWGQGTTLTVSS VL: DIVMTQSHKFMSTSVGDRVSITCKASQDVSTAVAWYQQKPGQSPKLLIYWASTRHTGVPDRFTGSGSGTDYTLTISSVQAEDLALYYCQQHYSTPYTFGGGTKLEIK ... yes
F846C.1H12 (antibody, human IgG4 S228P, kappa, V domains shown) VH: QIQLVQSGPELKKPGETVKISCKASGYTFTNFGMNWVKQAPGKGLKWMGWINTYTGEPSYADDFKGRFAFSLETSASTAYLQINNLKNEDIATYFCARWGGYAGDYYAMDYWGQGTSVTVSS VL: NIMMTQSPSSLAVSAGQKVTMSCKSSQSVLYSSSQKNYLAWYQQKPGQSPKLLIYWASTRESGVPDRFSGSGSGTDFTLTISSVQPEDLAVYYCHQYLSSLTFGAGTKLELKR ... yes

Item F846TC.14E4 (antibody, human IgG4 S228P, kappa, V domains shown) VH: QVTLKESGPGILQPSQTLSLTCSFSGFSLSTSGMGVGWIRQPSGKGLEWLAHIWWDDDKYYNTALKSGLTISKDASKNQVFLKIASMDTADTATYYCARNLYDGSYGYYAMDYWGQGTSVTVSS VL: DIVMTQAAFSNPVTLGTSASISCRSSKSLLHTNGITFLYWYLQKPGQSPQPLIYQMSNLASGVPDRFSSSGSGTDFTLRISRVEAEDVGVYYCAQNLELPWTFGGGTKLEINR with % inhibition of IL-6 secretion of 20% or above?
no

Item F846C.1F5 (antibody, human IgG4 S228P, kappa, V domains shown) VH: QIQLVQSGPELKKPGETVKISCKASGYTFTNYGMNWVKQAPGKGLKWMGWINTYTGEPSYADDFKGRFAFSLETSASTAYLQINNLKNEDMATYFCARWGGYDGDYYAMDYWGQGTSVTVSS VL: NIMMTQSPSSLAVSAGEKVTMSCKSSQSVLYSSNQKNYLAWYQQKPGQSPKLLIYWASTRESGVPDRFTGSGSGTDFTLTISSVQPEDLAVYYCHQYLSSLTFGAGTKLELKR with % inhibition of IL-6 secretion of 20% or above?
no

Item 2D10-VH0-VL0 (antibody, human IgG4 S228P, kappa, V domains shown) VH: QVQLQQSGPELVKPGASVKISCKASGYTFTDYYINWVKQRPGQGLEWIGWIYPGSQDTKYNEKFKGKATLTVDTSSSTAYMQLGSLTSEDSAVYFCANYFGSSGWFFDVWGTGTTVTVSS VL: DIVMTQAAFSNPVTLGTSASISCRSSKSLLHSDGITYLYWYLQRPGQSPQLLIYRMSNLASGVPDRFSGSGSGTDFTLRISRVEAEDVGVYYCAQMIEFPLTFGAGTILELKR with % inhibition of IL-6 secretion of 20% or above?
yes

Item 847.15D12 (antibody, V domains shown) VH: QVQLQQSGAELMKPGASVKISCKATGYTFTNYWIEWVKQRPGHGLEWIGEFLPGDGSSHYNEKFKGKATFTSDTSSNTAYIHLTSLTSEDSAVYYCVRDDYDSDYWAQGTTLTVSS VL: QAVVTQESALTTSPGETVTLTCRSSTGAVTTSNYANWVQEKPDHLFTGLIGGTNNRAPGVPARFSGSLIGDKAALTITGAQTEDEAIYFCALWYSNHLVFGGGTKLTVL with % inhibition of IL-6 secretion of 20% or above?
no

Item 847.11D6 (antibody, V domains shown) VH: EVKLQQSGPELMKPGTSMKISCKASGYSFTGYTMNWVKQSHGKNLEWIGLINPYNGGTNYNQKFRGKATLSVDKSSNTAYMELLSLTSEDSAVYYCARKDDYYGSSPYALDYWGQGTSVTVSS VL: DIVMTQSPASLAVSLGQRATISCRASESVENHVNSFMHWFQQKPGQPPKLLIYRASNLQSGIPARFSGSGSRTDFTLTINPVEADDVATYYCQQNNEVPYTFGGGTKLEIK with % inhibition of IL-6 secretion of 20% or above?
yes

Item 846T.4C9 (antibody, V domains shown) VH: EVQLQQSGPELVKPGASVKMSCKASGYSFTNYIMHWVKQKPGQGLEWIGYINPYNDGTKYNEKFKGKATLTSDKSSSTAYMELSSLTSEDSAVYYCARLLFYYAMDYWGQGTSVTVSS VL: DILMTQTPSSMSVSLGDTVSITCHASQGISSNIGWLQQKPRKSFKGLIYYGTNLEDGVPSRFSGSGSGADYSLTISSLESEDFADYYCVQYDQFPWTFGGGTKLEIK with % inhibition of IL-6 secretion of 20% or above?
no

Item 849.4F12 (antibody, V domains shown) VH: QVQLKESGPGILQPSQTLSLTCSFSGFSLSTFGMGVGWIRQPSGKGLEWLAHIWWDDDKHYNPALKSRLTISKDTSKNQVFLRIANVDTADNATYYCARIDYGDYVGFAYWGQGTLVTVSA VL: DILLTQSPSSMSVSLGDTVSITCHASQGINSNIGWLQQKPGKSFKGLIYHGTNLEDGVPSRFSGSGSGADYSLTISSLESEDFADYYCVQYDQFPWTFGGGTKLEIK with % inhibition of IL-6 secretion of 20% or above?
no
